Reference source: paper PMC5656653

- Method description: Biodistribution experiments in normal mice after i.v. injection
- Type: in vivo
- Experimental setup: male, ddY, mouse, in vivo, iv, total radioactivity, Biodistribution of radioactivity, Spleen
Where a SMILES comes first, the peptide text is derived from it. [ ]: non-standard residue; d: D form. The star is where a group is joined. DOTA = O=C(O)CN1CCN(CC(=O)O)CCN(CC(=O)*)CCN(CC(=O)O)CC1

Molecule	Measurement unit	tissue uptake dose at 10 min
O=C(O)CC[C@H](NC(=O)[C@H](CCC(=O)O)NC(=O)[C@H](CCC(=O)O)NC(=O)[C@H](CCC(=O)O)NC(=O)[C@H](CCC(=O)O)NC(=O)[C@H](CCC(=O)O)NC(=O)[C@H](CCC(=O)O)NC(=O)[C@H](CCC(=O)O)NC(=O)[C@H](CCC(=O)O)NC(=O)[C@H](CCC(=O)O)NC(=O)[C@H](CCC(=O)O)NC(=O)[C@H](CCC(=O)O)NC(=O)[C@H](CCC(=O)O)NC(=O)[C@H](CCC(=O)O)NC(=O)CN1CCN(CC(=O)O)CCN(CC(=O)O)CCN(CC(=O)O)CC1)C(=O)O [^67Ga-DOTA-(L-Glu)14, metal not drawn]	%ID	0.44
O=C(O)CC[C@@H](NC(=O)[C@@H](CCC(=O)O)NC(=O)[C@@H](CCC(=O)O)NC(=O)[C@@H](CCC(=O)O)NC(=O)[C@@H](CCC(=O)O)NC(=O)[C@@H](CCC(=O)O)NC(=O)[C@@H](CCC(=O)O)NC(=O)[C@@H](CCC(=O)O)NC(=O)[C@@H](CCC(=O)O)NC(=O)[C@@H](CCC(=O)O)NC(=O)[C@@H](CCC(=O)O)NC(=O)[C@@H](CCC(=O)O)NC(=O)[C@@H](CCC(=O)O)NC(=O)[C@@H](CCC(=O)O)NC(=O)CN1CCN(CC(=O)O)CCN(CC(=O)O)CCN(CC(=O)O)CC1)C(=O)O [^67Ga-DOTA-(D-Glu)14, metal not drawn]	%ID	0.37
O=C(O)C[C@@H](NC(=O)[C@@H](CC(=O)O)NC(=O)CN1CCN(CC(=O)O)CCN(CC(=O)O)CCN(CC(=O)O)CC1)C(=O)O [^67Ga-DOTA-(D-Asp)2, metal not drawn] ({DOTA}-[dD]-[dD]-OH)	%ID	0.5
O=C(O)C[C@@H](NC(=O)[C@@H](CC(=O)O)NC(=O)[C@@H](CC(=O)O)NC(=O)[C@@H](CC(=O)O)NC(=O)[C@@H](CC(=O)O)NC(=O)[C@@H](CC(=O)O)NC(=O)[C@@H](CC(=O)O)NC(=O)[C@@H](CC(=O)O)NC(=O)CN1CCN(CC(=O)O)CCN(CC(=O)O)CCN(CC(=O)O)CC1)C(=O)O [^67Ga-DOTA-(D-Asp)8, metal not drawn] ({DOTA}-[dD][dD][dD][dD][dD][dD][dD][dD]-OH)	%ID	0.42
O=C(O)C[C@@H](NC(=O)[C@@H](CC(=O)O)NC(=O)[C@@H](CC(=O)O)NC(=O)[C@@H](CC(=O)O)NC(=O)[C@@H](CC(=O)O)NC(=O)CN1CCN(CC(=O)O)CCN(CC(=O)O)CCN(CC(=O)O)CC1)C(=O)O [^67Ga-DOTA-(D-Asp)5, metal not drawn] ({DOTA}-[dD][dD][dD][dD][dD]-OH)	%ID	0.56
